- assayed.target: Nav1.7 (Homo sapiens)
- Construct: ChanTest Corp; host or cells: CHO cells (Chinese hamster)
- Sequence (Q15858 whole entry): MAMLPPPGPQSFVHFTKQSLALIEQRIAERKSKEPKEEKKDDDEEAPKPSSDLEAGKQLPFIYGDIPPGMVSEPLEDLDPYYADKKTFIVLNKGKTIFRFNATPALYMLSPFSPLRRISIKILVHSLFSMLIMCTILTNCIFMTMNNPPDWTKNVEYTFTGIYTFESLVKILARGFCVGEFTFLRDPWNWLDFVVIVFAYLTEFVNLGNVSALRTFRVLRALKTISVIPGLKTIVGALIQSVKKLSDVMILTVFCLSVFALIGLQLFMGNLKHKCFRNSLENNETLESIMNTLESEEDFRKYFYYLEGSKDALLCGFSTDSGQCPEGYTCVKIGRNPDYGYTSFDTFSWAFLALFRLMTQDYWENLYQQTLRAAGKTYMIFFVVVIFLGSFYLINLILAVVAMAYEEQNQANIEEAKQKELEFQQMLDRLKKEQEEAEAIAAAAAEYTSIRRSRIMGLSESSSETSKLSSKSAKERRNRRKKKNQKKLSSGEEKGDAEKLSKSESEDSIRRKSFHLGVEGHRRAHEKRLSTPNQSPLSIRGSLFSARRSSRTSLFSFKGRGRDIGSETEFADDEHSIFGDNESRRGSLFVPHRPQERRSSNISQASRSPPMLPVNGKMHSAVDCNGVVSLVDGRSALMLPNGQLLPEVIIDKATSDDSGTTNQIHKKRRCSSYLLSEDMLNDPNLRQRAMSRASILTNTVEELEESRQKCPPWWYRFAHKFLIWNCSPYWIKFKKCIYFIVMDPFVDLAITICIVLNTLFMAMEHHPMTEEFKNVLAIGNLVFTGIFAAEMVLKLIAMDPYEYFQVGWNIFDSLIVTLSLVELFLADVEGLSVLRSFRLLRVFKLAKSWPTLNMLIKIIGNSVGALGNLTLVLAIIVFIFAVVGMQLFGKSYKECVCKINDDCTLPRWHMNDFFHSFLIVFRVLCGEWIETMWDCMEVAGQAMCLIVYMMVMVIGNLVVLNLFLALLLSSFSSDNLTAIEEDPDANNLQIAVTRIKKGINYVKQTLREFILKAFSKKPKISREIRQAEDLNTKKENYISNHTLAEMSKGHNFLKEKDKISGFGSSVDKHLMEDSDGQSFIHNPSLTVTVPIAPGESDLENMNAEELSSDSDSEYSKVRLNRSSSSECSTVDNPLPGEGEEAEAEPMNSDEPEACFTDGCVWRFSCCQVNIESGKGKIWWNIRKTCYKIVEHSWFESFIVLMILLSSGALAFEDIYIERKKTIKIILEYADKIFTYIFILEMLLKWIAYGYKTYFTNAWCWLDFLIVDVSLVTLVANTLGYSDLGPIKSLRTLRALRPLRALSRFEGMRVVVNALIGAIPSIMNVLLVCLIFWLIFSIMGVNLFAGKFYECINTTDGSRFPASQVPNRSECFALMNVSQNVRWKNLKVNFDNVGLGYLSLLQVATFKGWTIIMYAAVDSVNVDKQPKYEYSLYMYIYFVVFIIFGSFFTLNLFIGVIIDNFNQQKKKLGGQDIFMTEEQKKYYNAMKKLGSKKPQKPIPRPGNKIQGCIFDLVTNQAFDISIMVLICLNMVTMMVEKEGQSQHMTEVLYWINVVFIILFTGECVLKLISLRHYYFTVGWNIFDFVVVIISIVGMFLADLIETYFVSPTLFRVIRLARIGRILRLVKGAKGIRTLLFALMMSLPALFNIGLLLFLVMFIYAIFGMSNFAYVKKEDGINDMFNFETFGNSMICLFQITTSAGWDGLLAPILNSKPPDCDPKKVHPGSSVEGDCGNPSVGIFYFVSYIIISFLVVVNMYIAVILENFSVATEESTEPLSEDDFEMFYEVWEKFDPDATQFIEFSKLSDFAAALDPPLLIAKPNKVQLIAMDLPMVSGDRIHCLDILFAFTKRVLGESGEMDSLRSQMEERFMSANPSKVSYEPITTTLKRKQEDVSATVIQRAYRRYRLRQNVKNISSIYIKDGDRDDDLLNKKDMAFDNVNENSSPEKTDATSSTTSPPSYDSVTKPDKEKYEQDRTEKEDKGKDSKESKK
- assay.info: Patch clamp testing, Nav1.7 ion channel inhibition (SyncroPatch 384PE)
- Format: cell-based
- protocol.conditions: TP2A = Inactivated State-Dependent Block; CHO cells transfected with human ion channel cDNA; 0.3% DMSO; read-out: Inhibition of Nav1.7 Ion Channel IC50, TP2A
// returns -1 unless IC50 is strictly below 80 µM, in which case 1

| item.smiles | class.label |
| --- | --- |
| COc1ccc(N(C)C(=O)CN(CCN(C)C)c2cccc(Cl)c2)cc1 | -1 |
| COc1ccc(N(C)C(=O)CN(CCN(C)C)c2ccc(F)c(Cl)c2)cc1 | -1 |
| COc1ccc(N(C)C(=O)CN(CCN2CCCCC2)c2ccccc2)cc1 | 1 |
| COc1ccc(N(C)C(=O)CN(CCN(C)C)c2ccc(Cl)c(C(F)(F)F)c2)cc1 | 1 |

* * *

- assayed.target: Nav1.7 (Homo sapiens)
- Construct: ChanTest Corp; host or cells: CHO cells (Chinese hamster)
- assay.info: Patch clamp testing, Nav1.7 ion channel inhibition (SyncroPatch 384PE)
- Assay type: cell-based
- protocol.conditions: TP2A = Inactivated State-Dependent Block; CHO cells transfected with human ion channel cDNA; 0.3% DMSO; read-out: Inhibition of Nav1.7 Ion Channel IC50, TP2A
- Method: […] Each compound was analyzed at concentrations of 1000 μM, 300 μM, 100 μM, 30 μM, 10 μM, 3 μM, 1 μM, and 0.3 μM. […]
Entries and their log10(IC50)
measured.attribute: log10(IC50) (log10 of the value in µM)

| compound | measured.attribute | recorded.value |
| --- | --- | --- |
| COc1ccc(N(C)C(=O)CN(CCN(C)C)c2ccc(Cl)c(Cl)c2)cc1 | log10(IC50) | 2.21 |
| COc1ccc(N(C)C(=O)CN(CCN(C)C)c2cccc(OC(F)(F)F)c2)cc1 | log10(IC50) | 2.36 |
| COc1ccc(N(C)C(=O)CN(CCN(C)C)c2cccc(Cl)c2F)cc1 | log10(IC50) | 2.83 |
| COc1ccc(N(C)C(=O)CN(CCN(C)C)c2cc(Cl)ccc2Cl)cc1 | log10(IC50) | 2.36 |
| COc1ccc(N(C)C(=O)CN(CCN(C)C)c2ccccc2C(F)(F)F)cc1 | log10(IC50) | 2.44 |
| CCN(CC)CC(=O)Nc1c(C)cccc1C [Lidocaine, reference compound] | log10(IC50) | 1.37 |

* * *

Entries and their IC50
- assayed.target: Nav1.5 (Homo sapiens, UniProt Q14524)
- Construct: ChanTest Corp; host or cells: CHO cells (Chinese hamster)
- Sequence (Q14524 whole entry): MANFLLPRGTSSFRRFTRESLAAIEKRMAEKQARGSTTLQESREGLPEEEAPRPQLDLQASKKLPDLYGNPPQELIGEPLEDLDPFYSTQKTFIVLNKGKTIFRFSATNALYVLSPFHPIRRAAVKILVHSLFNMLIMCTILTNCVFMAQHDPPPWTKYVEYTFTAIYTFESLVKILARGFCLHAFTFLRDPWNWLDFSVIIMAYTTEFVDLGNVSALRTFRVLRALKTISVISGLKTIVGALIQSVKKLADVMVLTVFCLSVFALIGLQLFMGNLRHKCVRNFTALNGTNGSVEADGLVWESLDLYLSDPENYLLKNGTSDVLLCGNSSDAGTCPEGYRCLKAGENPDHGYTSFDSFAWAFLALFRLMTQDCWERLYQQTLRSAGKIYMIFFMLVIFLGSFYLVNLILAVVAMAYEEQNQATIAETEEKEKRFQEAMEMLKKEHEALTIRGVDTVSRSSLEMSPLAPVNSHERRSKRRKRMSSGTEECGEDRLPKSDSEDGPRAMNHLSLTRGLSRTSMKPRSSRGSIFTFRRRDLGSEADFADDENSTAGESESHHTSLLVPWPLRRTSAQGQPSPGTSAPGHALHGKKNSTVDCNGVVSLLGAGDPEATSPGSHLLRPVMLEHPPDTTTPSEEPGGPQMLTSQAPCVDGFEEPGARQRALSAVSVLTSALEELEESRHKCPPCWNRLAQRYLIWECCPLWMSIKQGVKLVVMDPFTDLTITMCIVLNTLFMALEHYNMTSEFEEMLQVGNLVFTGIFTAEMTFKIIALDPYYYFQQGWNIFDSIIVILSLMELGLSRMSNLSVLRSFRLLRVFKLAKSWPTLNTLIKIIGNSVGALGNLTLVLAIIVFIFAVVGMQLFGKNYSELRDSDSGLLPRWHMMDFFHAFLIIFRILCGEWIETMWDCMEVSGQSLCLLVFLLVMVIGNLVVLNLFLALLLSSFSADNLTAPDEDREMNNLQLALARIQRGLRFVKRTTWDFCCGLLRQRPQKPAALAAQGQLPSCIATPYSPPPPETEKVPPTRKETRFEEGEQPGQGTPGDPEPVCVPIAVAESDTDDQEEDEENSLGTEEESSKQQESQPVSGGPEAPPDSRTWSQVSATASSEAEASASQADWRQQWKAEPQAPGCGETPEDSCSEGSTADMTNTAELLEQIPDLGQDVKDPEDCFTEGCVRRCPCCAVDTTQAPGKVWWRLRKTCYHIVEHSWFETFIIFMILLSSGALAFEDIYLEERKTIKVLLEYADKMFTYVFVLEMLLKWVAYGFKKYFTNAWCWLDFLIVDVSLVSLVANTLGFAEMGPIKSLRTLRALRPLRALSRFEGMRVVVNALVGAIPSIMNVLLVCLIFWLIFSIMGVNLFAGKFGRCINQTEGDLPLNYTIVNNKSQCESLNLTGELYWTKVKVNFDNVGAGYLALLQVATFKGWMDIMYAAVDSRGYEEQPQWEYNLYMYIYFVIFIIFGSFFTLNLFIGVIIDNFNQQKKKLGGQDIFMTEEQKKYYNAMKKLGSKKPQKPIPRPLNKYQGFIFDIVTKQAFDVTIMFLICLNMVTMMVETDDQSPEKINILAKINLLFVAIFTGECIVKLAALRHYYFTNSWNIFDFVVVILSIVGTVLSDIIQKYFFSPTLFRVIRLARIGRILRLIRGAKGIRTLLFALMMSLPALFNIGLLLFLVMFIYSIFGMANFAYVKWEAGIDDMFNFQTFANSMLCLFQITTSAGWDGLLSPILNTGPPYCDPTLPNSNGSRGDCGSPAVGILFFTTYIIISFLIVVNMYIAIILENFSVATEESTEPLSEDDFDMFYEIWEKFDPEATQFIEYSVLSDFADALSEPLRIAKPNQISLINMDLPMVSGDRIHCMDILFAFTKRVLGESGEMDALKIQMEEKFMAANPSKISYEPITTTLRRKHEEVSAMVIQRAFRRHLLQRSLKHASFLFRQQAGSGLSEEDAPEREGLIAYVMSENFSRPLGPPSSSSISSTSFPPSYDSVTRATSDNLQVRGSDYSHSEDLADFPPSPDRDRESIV
- assay.info: Patch clamp testing, Nav1.5 ion channel inhibition (SyncroPatch 384PE)
- Assay type: cell-based

| compound | IC50 |
| --- | --- |
| COc1ccc(N(C)C(=O)CN(CCN(C)C)c2ccccc2C)cc1 [Compound 2295] | > 1000 µM |
| COc1ccc(N(C)C(=O)CN(CCN(C)C)c2ccccc2OC)cc1 [Compound 2293] | > 1000 µM |

* * *

Entries and their IC50
- assayed.target: Nav1.5 (Homo sapiens, UniProt Q14524)
- Construct: ChanTest Corp; host or cells: CHO cells (Chinese hamster)
- assay.info: Patch clamp testing, Nav1.5 ion channel inhibition (SyncroPatch 384PE)
- Assay type: cell-based
- protocol.conditions: Inhibition of Nav1.5 Ion Channel IC50, TP25B, TP25B = Use-Dependent Block; CHO cells transfected with human ion channel cDNA; 0.3% DMSO

| compound | measurement.units | value.operator | IC50 |
| --- | --- | --- | --- |
| COc1ccc(N(C)C(=O)CN(CCN(C)C)c2ccc(Cl)c(C(F)(F)F)c2)cc1 [Compound 2297] | µM | = | 72.7 |
| COc1ccc(N(C)C(=O)CN(CCN(C)C)c2ccc(Cl)c(Cl)c2)cc1 [Compound 2292] | µM | = | 193 |
| COc1ccc(N(C)C(=O)CN(CCN)c2ccccc2)cc1 [Compound 2302] | µM | = | 75.9 |
| COc1ccc(N(C)C(=O)CN(CCN2CCCCC2)c2ccccc2)cc1 [Compound 2303] | µM | = | 9.5 |
| COc1ccc(N(C)C(=O)CN(CCN(C)C)c2cccc(OC(F)(F)F)c2)cc1 [Compound 2296] | µM | = | 222 |
| COc1ccc(N(C)C(=O)CN(CCN2CCN(C)CC2)c2ccccc2)cc1 [Compound 2304] | µM | = | 670 |
| COc1ccc(N(C)C(=O)CN(CCN(C)C)c2ccccc2C(F)(F)F)cc1 [Compound 2301] | µM | = | 154 |
| COc1ccc(N(C)C(=O)CN(CCN(C)C)c2cccc(Cl)c2)cc1 [Compound 2291] | µM | = | 693 |
| COc1ccc(N(C)C(=O)CN(CCN(C)C)c2ccccc2OC)cc1 [Compound 2293] | µM | > | 1000 |
| COc1ccc(N(C)C(=O)CN(CCN(C)C)c2ccccc2)cc1 [Compound 2290] | µM | > | 1000 |
